- Tested on: B. subtilis (ATCC 6633)
- protocol.text: Minimum inhibitory concentration (MIC), liquid media method in 96-well plates
- Format: cell-based, Bacillus subtilis
- experimental.parameters: 1,2×10^5 cfu/ml per well; incubated 48 hours at 32,5° C.; turbidity read-out
Non-standard residues stand in square brackets, D forms with d. Residues, ends and D or L forms follow the SMILES beside them. *: point of attachment. 2Nal = N[C@@H](Cc1ccc2ccccc2c1)C(=O)O; d2Nal = N[C@H](Cc1ccc2ccccc2c1)C(=O)O; Butanoyl(4-Ph) = O=C(CCCc1ccccc1)*; Dab = NCC[C@H](N)C(=O)O
Give measured MIC values B. subtilis for each item. Keep answers brief.

# MIC values B. subtilis of CCCN(CCC)C(=O)[C@H](Cc1c[nH]c2ccccc12)NC(=O)[C@H](CCCNC(=N)N)NC(=O)[C@@H](Cc1ccccc1)NC(=O)[C@H](Cc1c[nH]cn1)NC(=O)CCCc1ccccc1 [I-d, PhBu-His-D-Phe-Arg-Trp-N(Propyl)2 *2TFA] = 15.6 ppm

# MIC values B. subtilis (molecule: CCCCCCCCNC(=O)[C@H](Cc1c[nH]c2ccccc12)NC(=O)[C@H](CCCNC(=N)N)NC(=O)[C@@H](Cc1ccccc1)NC(=O)[C@H](Cc1c[nH]cn1)NC(=O)CCCc1ccccc1 [I-g, PhBu-His-D-Phe-Arg-Trp-NH-Octyl *2TFA] ) is 252 ppm

Recorded MIC values B. subtilis (molecule N=C(N)NCCC[C@H](NC(=O)[C@@H](Cc1ccccc1)NC(=O)[C@H](Cc1c[nH]cn1)NC(=O)CCCc1ccccc1)C(=O)N[C@@H](Cc1c[nH]c2ccccc12)C(=O)NCc1ccccc1 [I-f, PhBu-His-D-Phe-Arg-Trp-NH-Bn *2TFA] ): 252 ppm

Kindly note the recorded MIC values B. subtilis for N=C(N)NCCC[C@H](NC(=O)[C@@H](Cc1ccccc1)NC(=O)[C@H](Cc1c[nH]cn1)NC(=O)CCCc1ccccc1)C(=O)N[C@@H](Cc1c[nH]c2ccccc12)C(=O)NCC(O)CO (some centres unmarked) , which is 317 ppm

Documented MIC values B. subtilis of COc1ccc(CCCC(=O)N[C@@H](Cc2c[nH]cn2)C(=O)N[C@H](Cc2ccccc2)C(=O)N[C@@H](CCCNC(=N)N)C(=O)N[C@@H](Cc2c[nH]c3ccccc23)C(N)=O)cc1 : 200 ppm

According to the records, this molecule NCC[C@H](NC(=O)[C@@H](Cc1ccccc1)NC(=O)[C@H](Cc1c[nH]cn1)NC(=O)CCCc1ccccc1)C(=O)N[C@@H](Cc1c[nH]c2ccccc12)C(N)=O [I-e, PhBu-His-D-Phe-Dab-Trp-NH2 *2TFA] ({Butanoyl(4-Ph)}-H[dF][Dab]W-NH2) displays MIC values B. subtilis of 400 ppm

# molecule N=C(N)NCCC[C@H](NC(=O)[C@@H](Cc1ccccc1)NC(=O)[C@H](Cc1c[nH]cn1)NC(=O)CCCc1ccccc1)C(=O)N[C@@H](Cc1ccc2ccccc2c1)C(N)=O [I-a, PhBu-His-D-Phe-Arg-L-2NaphAla-NH2 *2TFA] ({Butanoyl(4-Ph)}-H[dF]R[2Nal]-NH2) ; its MIC values B. subtilis = 62.5 ppm

Sample N=C(N)NCCC[C@H](NC(=O)[C@@H](Cc1ccccc1)NC(=O)[C@H](Cc1c[nH]cn1)NC(=O)CCCc1ccccc1)C(=O)N[C@H](Cc1ccc2ccccc2c1)C(N)=O [I-b, PhBu-His-D-Phe-Arg-D-2NaphAla-NH2 *2TFA] ({Butanoyl(4-Ph)}-H[dF]R[d2Nal]-NH2) ; MIC values B. subtilis observed: 100 ppm
